B1: ZNF232 (parent)
chain: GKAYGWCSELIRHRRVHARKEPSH

Variants of: B1
Test Method Notes: protein stability index of a GFP-peptide fusion (GPS, HEK-293T) (PSI 1-6); higher = more stable;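 further: lentivirally expressed fusions sorted by FACS into six bins by GFP to DsRed ratio, PSI derived from sequencing read proportions per bin multiplied by bin number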
Test Settings: c terminus: a fixed tail appended

Variant Name | protein stability index
W6K | 4.02
A3T | 3.02
V16R | 3.67
C7K | 3.54
K20S | 2.86
R15L | 2.02
H13F | 1.94
H24P | 3.08
R14L | 2.03
E21Q | 2.69
A18M | 3.25
G1T | 3.35
K20M | 2.18
K20E | 3.07
L10Y | 2.22
R15C | 1.99
R15M | 3.16
H24N | 3.65
P22G | 2.71
W6G | 3.96
W6R | 3.7
P22E | 4.22
G1F | 2.79
H24Q | 2.25
Y4Q | 3.75
G5S | 2.99
E9I | 2.51
R19S | 2.8
H17S | 2.76
E9C | 1.76
Y4V | 3.04
K20R | 2.12
E21V | 3.1
S8H | 2.69
A18F | 2.49
H13E | 3.42
G5H | 3.04
R14P | 2.95
Y4E | 3.62
E21F | 2.04
C7Q | 3.18
P22C | 2.52
E9S | 3.02
A18Q | 2.81
R19Q | 3.44
K20I | 2.05

Value source: the supplement of paper PMC10567573
